All values here come from patent US6645529B2.

Assay: bulk density
Format: physicochemical
Assay Setup: Table 1, preferred carrier materials
Record form. Attribute: bulk density (g/100 ml). Fill in for each entry.
Answers are plain numbers, in g/100 ml.

Below are worked cases with known answers.
[
  {
    "Compound": "OC[C@H]1O[C@@H](O[C@H]2[C@H](O)[C@@H](O)C(O)O[C@@H]2CO)[C@H](O)[C@@H](O)[C@H]1O (stereo partly shown) [lactose]",
    "Readout": "bulk density (g/100 ml)",
    "Endpoint Result": 69
  },
  {
    "Compound": "O.O=P([O-])(O)O.O=P([O-])(O)O.[Ca+2] [monocalcium phosphate.H2O]",
    "Readout": "bulk density (g/100 ml)",
    "Endpoint Result": 82
  },
  {
    "Compound": "O.O.O=C([O-])CC(O)(CC(=O)[O-])C(=O)[O-].[Na+].[Na+].[Na+] [trisodiumcitrate.2H2O]",
    "Readout": "bulk density (g/100 ml)",
    "Endpoint Result": 95
  }
]

Could you now look at the following compound, please?
Incoming: Find the measured bulk density (g/100 ml) of OC[C@H]1O[C@@](CO)(O[C@H]2O[C@H](CO)[C@@H](O)[C@H](O)[C@H]2O)[C@@H](O)[C@@H]1O [instant sugar] and report it.
Outgoing: 50
